Taken from patent US8609680B2.

# measurement_target: human GHSR1a (Homo sapiens, UniProt Q92847)
# Construct: expressed in transfected cells; host or cells: HEK293 Tetracycline-Inducible cell line, used as membranes
# Sequence (Q92847 whole entry): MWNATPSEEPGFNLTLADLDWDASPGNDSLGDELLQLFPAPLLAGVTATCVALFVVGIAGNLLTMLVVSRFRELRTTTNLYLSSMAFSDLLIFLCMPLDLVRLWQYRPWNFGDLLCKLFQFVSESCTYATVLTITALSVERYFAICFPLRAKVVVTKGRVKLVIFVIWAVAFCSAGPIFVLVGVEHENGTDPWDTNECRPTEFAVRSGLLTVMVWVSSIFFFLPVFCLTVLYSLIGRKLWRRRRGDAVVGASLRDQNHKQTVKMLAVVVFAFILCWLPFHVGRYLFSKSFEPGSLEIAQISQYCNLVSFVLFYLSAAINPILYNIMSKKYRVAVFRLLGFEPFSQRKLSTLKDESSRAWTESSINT
# assay_procedure: Human Ghrelin SPA Binding Assay
experimental_readout: pIC50
By convention, pIC50 is the negative base-10 log of a molar concentration.

Below: 5 compounds and their reported pIC50.
{"columns": ["compound", "measurement_target", "reported_measurement"],
 "data": [
  ["COc1ccc(CC(=O)N2CCC3(CC2)CN([C@@H]2CCc4ccccc42)C3)cc1", "human GHSR1a (Homo sapiens, UniProt Q92847)", 6.53],
  ["Cc1cc(-c2ccc3c(c2)CC[C@H]3N2CC3(CCN(C(=O)Cc4cn5nc(C)sc5n4)CC3)C2)ncn1", "human GHSR1a (Homo sapiens, UniProt Q92847)", 8.17],
  ["Cc1ccc(CC(=O)N2CCC3(CC2)CN([C@@H]2CCc4cc(-c5ncccn5)ccc42)C3)c(C(N)=O)c1", "human GHSR1a (Homo sapiens, UniProt Q92847)", 7.37],
  ["COc1ccc(CC(=O)N2CCC3(CC2)CN([C@@H]2CCc4cc(-c5ccc(C#N)nc5)ccc42)C3)nc1", "human GHSR1a (Homo sapiens, UniProt Q92847)", 7.15],
  ["COc1ccc(CC(=O)N2CCC3(CC2)CN([C@@H]2CCc4cc(-n5nccn5)ccc42)C3)cc1", "human GHSR1a (Homo sapiens, UniProt Q92847)", 8.42]
]}

// query So what pIC50 did COc1ccc(CC(=O)N2CCC3(CC2)CN(C2CCc4cc(Oc5ccccc5)ccc42)C3)nc1 (racemic) get with human GHSR1a (Homo sapiens, UniProt Q92847)?
// result 7.44

// query API: value(readout=pIC50, system=human GHSR1a (Homo sapiens, UniProt Q92847)) for record Cc1nn2cc(CC(=O)N3CCC4(CC3)CN([C@@H]3CCc5cc(-c6ccc(C(N)=O)nc6)ccc53)C4)nc2s1 [Example 10F]
// result 7.80

// query What measured pIC50 is associated with COc1ccc(CC(=O)N2CCC3(CC2)CN([C@@H]2CCc4cc(-c5cc(C#N)ncn5)ccc42)C3)nc1 on human GHSR1a (Homo sapiens, UniProt Q92847)?
// result 7.39
